Biological target: UniProt:P08684
Sequence (P08684 whole entry): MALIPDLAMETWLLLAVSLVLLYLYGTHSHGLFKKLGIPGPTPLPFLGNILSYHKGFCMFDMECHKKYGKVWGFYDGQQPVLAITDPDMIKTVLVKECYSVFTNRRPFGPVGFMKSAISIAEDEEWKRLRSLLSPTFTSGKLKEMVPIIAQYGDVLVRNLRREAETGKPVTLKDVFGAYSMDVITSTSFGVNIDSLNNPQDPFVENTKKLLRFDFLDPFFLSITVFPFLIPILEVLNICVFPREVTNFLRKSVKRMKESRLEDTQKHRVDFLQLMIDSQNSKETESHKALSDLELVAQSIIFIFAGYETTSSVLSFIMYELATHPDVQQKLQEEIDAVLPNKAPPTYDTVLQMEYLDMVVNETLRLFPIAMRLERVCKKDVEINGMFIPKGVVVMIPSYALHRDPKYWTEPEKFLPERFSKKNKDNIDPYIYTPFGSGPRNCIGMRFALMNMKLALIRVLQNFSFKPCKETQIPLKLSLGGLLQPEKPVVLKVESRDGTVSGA
Assay: Inhibition of human CYP3A4 assessed as conversion of testosterone to 6beta-hydroxytestosterone at 10 uM after 30 mins by HPLC analysis
Type: ADME
Settings: probe testosterone
MEASURE: inhibition at 0.5 h, 10 µM (%)

Worked cases, inhibition at 0.5 h, 10 µM given:
>  <CHEMICAL_SMILES>
CONC(=O)Nc1ccc(-c2sc3c(c2CN(C)Cc2ccccc2)c(=O)n(-c2ccccc2)c(=O)n3Cc2c(F)cccc2F)cc1

>  <ASSAYED_TARGET>
UniProt:P08684

>  <MEASUREMENT_UNITS>
%

>  <inhibition at 0.5 h, 10 µM>
36

$$$$
>  <CHEMICAL_SMILES>
COCCN(C)Cc1c(-c2ccc(NC(=O)NOC)cc2)sc2c1c(=O)n(-c1ccc(C)cn1)c(=O)n2Cc1c(F)cccc1F

>  <ASSAYED_TARGET>
UniProt:P08684

>  <MEASUREMENT_UNITS>
%

>  <inhibition at 0.5 h, 10 µM>
4

$$$$
>  <CHEMICAL_SMILES>
COCCN(C)Cc1c(-c2ccc(NC(=O)NOC)cc2)sc2c1c(=O)n(CCOC)c(=O)n2Cc1c(F)cccc1F

>  <ASSAYED_TARGET>
UniProt:P08684

>  <MEASUREMENT_UNITS>
%

>  <inhibition at 0.5 h, 10 µM>
8

$$$$

1. COCCN(C)Cc1c(-c2ccc(NC(=O)NOC)cc2)sc2c1c(=O)n(CCO)c(=O)n2Cc1c(F)cccc1F
2. CONC(=O)Nc1ccc(-c2sc3c(c2CN(C)Cc2cccc(CO)n2)c(=O)n(-c2ccccc2)c(=O)n3Cc2c(F)cccc2F)cc1
Between the entries labelled 1 and 2 , which has a larger inhibition at 0.5 h, 10 µM value on record? When you have decided, please share the label of that item.
2
(2: 45%, 1: 23%)

a. CONC(=O)Nc1ccc(-c2sc3c(c2CN(C)CCN(C)S(C)(=O)=O)c(=O)n(-c2ccccc2)c(=O)n3Cc2c(F)cccc2F)cc1
b. CONC(=O)Nc1ccc(-c2sc3c(c2CN(C)CCc2ccccn2)c(=O)n(-c2ccccc2)c(=O)n3Cc2c(F)cccc2F)cc1
inhibition at 0.5 h, 10 µM comparison. Which is larger, a or b ? # reply format: chosen label
b

====

Assay: Lipophilicity, log D of the compound at pH 7.4
Format: physicochemical
Conditions: buffer
MEASURE: logD

Worked set:
>  <CHEMICAL_SMILES>
CONC(=O)Nc1ccc(-c2sc3c(c2CN(C)CCn2ccnn2)c(=O)n(-c2ccccc2)c(=O)n3Cc2c(F)cccc2F)cc1

>  <logD>
2.62

$$$$
>  <CHEMICAL_SMILES>
COCCN(C)Cc1c(-c2ccc(NC(=O)NOC)cc2)sc2c1c(=O)n(-c1ccc(OC)cc1)c(=O)n2Cc1c(F)cccc1F

>  <logD>
2.24

$$$$

A. COCCN(C)Cc1c(-c2ccc(NC(=O)NOC)cc2)sc2c1c(=O)n(-c1ccc(OC)nc1)c(=O)n2Cc1c(F)cccc1F
B. COCCN(C)Cc1c(-c2ccc(NC(=O)NOC)cc2)sc2c1c(=O)n(-c1ccccn1)c(=O)n2Cc1c(F)cccc1F
Hello, I am sorting some records. Could you say if A or B has the smaller logD value? To answer, give the label that identifies your chosen option.
B
(B: 1.62, A: 2.34)
